Each entry below carries its reported folding stability dG.
B1: r16_88_TrROS_Hall (parent)
chain: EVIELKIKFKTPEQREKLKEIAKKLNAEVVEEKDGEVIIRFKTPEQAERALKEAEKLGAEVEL

variants of: B1; assay: folding stability dG (cDNA display proteolysis); higher = more stable; settings: PBS, room temperature
measurement_kind: folding stability dG (kcal/mol)

> print(dat)
    mutation.id  endpoint.result
 1         G58W             4.21
 2         I39F             4.92
 3         L18N             2.97
 4         E13M             4.65
 5         A54P             2.86
 6         T11K             4.23
 7         K19P             3.37
 8         G58I             4.22
 9         E28R             4.37
10         D34E             4.44
11         A27P             4.01
12         V61T              4.2
13         K52L             4.44
14         E55Q             4.48
15         R40A              4.3
16         L51V             4.39
17          E1H             4.08
18         K42G             4.03
19         A22M             4.35
20         E48W             4.47
21          I3R             4.61
22          V2Y             4.53
23         Q46M             4.15
24          V2M             4.45
25         K19G             4.38
26         P44H             4.75
27         L18I             4.33
28         E28N             4.17
29         L51N              4.3
30         K42L             4.13
31         E31R             4.35
32         K33H             4.45
33          K6Y             4.77
34         E62H             4.37
35         Q14E             3.98
36         P12G             4.38
37         E36M             4.48
38         K33W             4.45
39         K17G             4.38
40         E28P             4.34
41          V2E             4.13
42         V37C             4.19
43         A50C             4.36
44         E20F             4.98
45         E32P             4.54
46         E62P             3.84
